All figures here come from paper PMC10321576.

- Experimental target: T1, KDM7A (KIAA1718) PHD-finger
- T1 chain: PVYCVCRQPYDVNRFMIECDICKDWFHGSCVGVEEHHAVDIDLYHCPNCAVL
- Assay overview: ITC
Bridge positions count the residues as written; N and C are the ends. Ends that are not written are not given here.
Measure name: Kd

Ask: Quick one: Kd for {CH2CO}-YYLTHPYPSVFRTC (thioether N-14) [OC9, de novo cyclic peptide from mRNA display] ?
Result: 33 nM
